Tested on: MDA-MB-231 breast
Experiment: NCI tumour cell line growth inhibition, 48 h
TGI values for the compounds below.
Give just the number in µM; leave the unit off.

Reported TGI for `O=C(c1ccccc1)c1cc(Cl)ccc1OCCCCN1CCN(CCCCOc2ccc(Cl)cc2C(=O)c2ccccc2)CC1` : what is it? 5.75

Reported TGI for `CC(=O)OCc1cc(CCC(=O)NCCNc2c3ccccc3nc3ccccc23)cc(COC(C)=O)c1O[Si](C)(C)C(C)(C)C` : what is it? 11.6

Reported TGI for `N#CSC#Cc1ccc(C#CSC#N)cc1` : what is it? 35.2

====

log10 TGI values for the compounds below.
Test system: UO-31 renal
Assay: NCI tumour cell line growth inhibition, 48 h
Form field - Quantity: TGI; Unit: µM; Scale: log10

Some compounds with recorded log10 TGI:
| compound | test system | log10 TGI |
| --- | --- | --- |
| O=C(OCc1ccc2cccc(O)c2n1)N1CCN(C(=O)c2cc3cc(F)ccc3[nH]2)CC1 | UO-31 renal | 0.29 |
| CCN1CCN(c2ccc(Nc3cc(N(C)C(=O)Nc4c(Cl)c(OC)cc(OC)c4Cl)ncn3)cc2)CC1 | UO-31 renal | 1.00 |
| NC(=NCCCOc1ccc(Cl)cc1)Nc1ccc(C(F)(F)F)cc1 | UO-31 renal | 0.87 |
| CNCCNc1c2c(c(NCCNC)c3c(CN(C)C)c[nH]c13)C(=O)c1ccccc1C2=O | UO-31 renal | 1.16 |

Kindly consider the entry below.
Reported log10 TGI for CC1OC2CC(=O)OC2C2=C1C(=O)c1c(O)cccc1C2=O (stereo not given) : what is it? -0.64

====

System: MDA-MB-435
Choose the fitting class; nothing outside True (active), False (inactive) is accepted.

| molecule | test system | assigned category |
| --- | --- | --- |
| COc1ccc(N2C(=O)C(c3ccccc3)(c3ccccc3)C23C(=O)N(C)c2ccccc23)cc1 (stereo unspecified) | MDA-MB-435 | False |
| C=C(C)[C@@]12OC3(/C=C/C=C/CCCCC)O[C@@H]1[C@@H]1[C@@H]4O[C@]4(CO)[C@@H](O)[C@]4(O)C(=O)C(C)=C[C@H]4[C@@]1(O3)[C@H](C)[C@H]2OC(=O)c1ccccc1 | MDA-MB-435 | True |
| CC(C)(C)C(=O)OCOP(=O)(OCOC(=O)C(C)(C)C)C1CCCN(O)C1=O (stereo unspecified) | MDA-MB-435 | False |

Just curious, what result did `Clc1ccc2c(NCCCNc3nccc(Nc4ccc(Br)cc4)n3)ccnc2c1` get here? False

Just curious, what result did `C/C1=C\CC[C@@]2(C)O[C@@H]2[C@H]2OC(=O)[C@@H](CN(C)C)[C@@H]2CC1` get here? False

Just curious, what result did `COc1cc(C(=O)c2cc(C)c3[nH]c4ccc(Cl)cc4c3c2C)cc(OC)c1OC` get here? True

Just curious, what result did C[As](C)SC1OC(CO)C(O)C1O (stereo unspecified) get here? True

====

System: SF-268 CNS
Test: NCI tumour cell line growth inhibition, 48 h; in the data active = GI50 below about 0.43 µM; inactive = the rest
Choose the fitting class; nothing outside label 1 = active, label 0 = inactive is accepted.

| compound | assigned category |
| --- | --- |
| Cc1ccc(Cl)cc1Nc1nc(C(F)(F)F)ccc1C(=O)N1CCN(c2ccc(F)cc2)CC1 | label 0 |
| NC(=NCCCOc1ccc(Cl)cc1)Nc1ccc(C(F)(F)F)cc1 | label 0 |

Just curious, what result did `COc1ccc(C(=O)c2cc(OC)c(C)c(OC)c2)cc1OC(=O)CCl` get here? label 0

Just curious, what result did `CNCCCn1cc(C2=C(c3cn(C)c4ccccc34)C(=O)NC2=O)c2ccccc21` get here? label 0

Just curious, what result did CC(=O)OC1Oc2ccccc2-c2oc(=O)c(-c3cc(=O)oc4cc(O)ccc34)cc21 (centres undefined) get here? label 0

Just curious, what result did `C/C1=C\CC[C@@]2(C)O[C@@H]2[C@H]2OC(=O)[C@@H](CN(C)C)[C@@H]2CC1` get here? label 0
